Quick reference for Kd among some binders
- target-of-assay: West Nile virus strain USA99b (strain 385-99), whole virus (West Nile virus strain 385-99 (USA99b))
Enter your answer as a number in nM; do not include the unit.

Below, each entry is followed by its recorded Kd result.
binder: CR5074 (antibody, V domains shown) VH: QITLKESGPTLVKPTQTLTLTCTFSGFSLSTSGVGVGWIRQPPGKALEWLAVIYWNDDKLYRPSLKSRLTITKDTSKNQVVLTMTKMDPVDTATYYCAHRHRYYDISGYYRLFSDAFDIWGQGTMVTVSS VL: QSVLTQPPSVSGAPGQRVTISCTGSSSNIGTGYDVHWYQQLPGTAPKLLIYADTNRPSGVPDRFSGSKSGTSASLAITGVQAEDEADYYCQSYDTSLTGWVFGGGTKVTVLG
Kd (nM): 3.9
//
binder: CR5088 (antibody, V domains shown) VH: QITLKESGPTLVKPTQTLTLTCTFSGFSLSTSGVGVGWIRQPPGKALEWLAVIYWNDDKLYRPSLKSRLTITKDTSKNQVVLTMTKMDPVDTATYYCAHRHRYYDISGYYRLFSDAFDIWGQGTMVTVSS VL: QSVVTQPPSVSGAPGQRITISCTGSSSNIGAGYDVHWYQQLPGTAPKFLIYGNSNRPSGVPDRFSGSKSGTSASLAITGLQAEDEADYYCQSYDSSLSGWVFGGGTKLTVLG
Kd (nM): 1.7

Look up Kd of CR5080 (antibody, V domains shown) VH: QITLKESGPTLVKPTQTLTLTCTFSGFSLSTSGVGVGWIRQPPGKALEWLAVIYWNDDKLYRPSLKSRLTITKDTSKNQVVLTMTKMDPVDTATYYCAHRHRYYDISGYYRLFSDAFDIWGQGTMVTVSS VL: QSVLTQPPSVSGAPGQRVTISCTGSSSNIGAGYDVHWYQQLPGTAPKLLIYGNSNRPSGVPDRFSGSKSGTSASLAITGLQAEDEADYYCQSYDSSLSGWAFGGGTKLTVLG and report it. 2.7

Determine from records and report Kd for CR5085 (antibody, V domains shown) VH: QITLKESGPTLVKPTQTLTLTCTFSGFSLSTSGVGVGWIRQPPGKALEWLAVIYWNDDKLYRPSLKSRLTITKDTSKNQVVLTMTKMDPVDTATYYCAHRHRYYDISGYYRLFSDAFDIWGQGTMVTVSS VL: QSVVTQPPSVSGAPGQRVTISCTGSSSNIGAGYDVHWYQQLPGTAPKLLIYGNSNRPSGVPDRFSGSKSGTSASLAITGLQAEDETDYYCQSYDSSLNGWVFGGGTKLTVLG 3.7
